# target or test system: Adenosine receptor A2a (Homo sapiens, UniProt P29274)
# Sequence (P29274 whole entry): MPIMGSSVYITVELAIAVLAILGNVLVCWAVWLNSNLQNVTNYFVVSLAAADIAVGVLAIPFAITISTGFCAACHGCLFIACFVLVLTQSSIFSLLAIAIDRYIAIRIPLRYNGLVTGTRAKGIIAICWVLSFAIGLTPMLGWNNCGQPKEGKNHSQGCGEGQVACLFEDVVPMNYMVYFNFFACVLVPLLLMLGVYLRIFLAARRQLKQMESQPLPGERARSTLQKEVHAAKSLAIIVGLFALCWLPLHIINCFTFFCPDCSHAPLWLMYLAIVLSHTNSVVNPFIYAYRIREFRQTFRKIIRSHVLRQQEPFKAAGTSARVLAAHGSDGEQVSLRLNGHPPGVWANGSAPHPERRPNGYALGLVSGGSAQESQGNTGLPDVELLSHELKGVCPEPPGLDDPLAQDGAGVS
# procedure text: Displacement of [3H]NECA from human A2A adenosine receptor expressed in CHO cell membranes
endpoint: log10 Ki (log10 of the value in nM)
// units: nM (pre-log); metric: Ki; scale: log10

// worked examples, log10 Ki included
Ask: Give the measured log10 Ki for Fc1ccc(CNc2nc(NCc3ccc(F)cc3)n3nc(-c4ccco4)nc3n2)cc1
Result: 1.64

Ask: Quick one: give measured log10 Ki for O=C(Cc1ccccc1)Nc1nc(NCc2ccccc2)nc2nc(-c3ccco3)nn12
Result: 0.73

New cases:
Ask: Quick one: give measured log10 Ki for CNc1nc(N)n2nc(-c3ccco3)nc2n1
Result: 1.69

Ask: For the compound c1ccc(CNc2nc(Oc3ccccc3)nc3nc(-c4ccco4)nn23)cc1 , report log10 Ki.
Result: 2.75

Ask: Determine from records and report log10 Ki for c1ccc(CNc2nc(NC3CCCCC3)n3nc(-c4ccco4)nc3n2)cc1
Result: 1.18

Ask: // Input: O=C(Nc1ccccc1)Nc1nc(NC2CCCCC2)nc2nc(-c3ccco3)nn12 . Output its log10 Ki only.
Result: 0.90

* * *

# target or test system: Adenosine receptor A2a (Homo sapiens)
endpoint: pKi
Recall that pKi is obtained by taking minus log10 of the concentration measured in molar.

Example molecules with recorded pKi:
Ask: Specify reported pKi for the molecule shown: CC(C)Nc1nc(NC(=O)Nc2ccccc2)n2nc(-c3ccco3)nc2n1
Result: 7.06

Ask: Indicate the recorded pKi value for this molecule: CNc1nc(NC2CCCCC2)n2nc(-c3ccco3)nc2n1
Result: 6.84

Ask: Return value of pKi for input CC(C)Nc1nc(N)n2nc(-c3ccco3)nc2n1 , no commentary.
Result: 7.19

Ask: Name the recorded pKi of the item CNc1nc(NC(=O)Nc2ccccc2)n2nc(-c3ccco3)nc2n1 in your answer.
Result: 7.00

Ask: Please list pKi recorded for the molecule O=C(Cc1ccccc1)Nc1nc(NC2CCCCC2)nc2nc(-c3ccco3)nn12
Result: 7.63

Further cases:
Ask: Please give the documented pKi of O=C(Nc1nc(NC2CCCCC2)nc2nc(-c3ccco3)nn12)c1ccccc1
Result: 5.99

Ask: Give reported pKi value for CNc1nc(NCc2ccc(F)cc2)n2nc(-c3ccco3)nc2n1
Result: 6.63

* * *

# Species: Homo sapiens
# procedure text: Selectivity index, ratio of Ki for human A3 adenosine receptor to Ki for human A2A adenosine receptor
Note to self: class labels come from recorded Ratio Ki, ranges listed here: bottom = under 2, middle = from 2 up to 10, top = 10 and over

Ask: Dear colleague, I would appreciate it if you could identify the bin for c1ccc(CNc2nc(NC3CCCCC3)n3nc(-c4ccco4)nc3n2)cc1 and reply at your convenience.
Result: top

Ask: Entry CNc1nc(NCc2ccccc2)n2nc(-c3ccco3)nc2n1 belongs to which category?
Result: bottom

Ask: For this compound, which bin applies? O=C(Nc1ccccc1)Nc1nc(NCc2ccccc2)nc2nc(-c3ccco3)nn12
Result: top

Ask: Given Fc1ccc(CNc2nc(NC3CCCCC3)nc3nc(-c4ccco4)nn23)cc1 , name the class its Ratio Ki places it in.
Result: top

Ask: Lab note: which band did CNc1nc(NCc2ccc(F)cc2)n2nc(-c3ccco3)nc2n1 land in?
Result: middle

Ask: Could you tell me which band CNc1nc(NC(=O)Cc2ccccc2)n2nc(-c3ccco3)nc2n1 belongs to?
Result: middle

Ask: Could you tell me which band Fc1ccc(CNc2nc(Oc3ccccc3)nc3nc(-c4ccco4)nn23)cc1 belongs to?
Result: top

Ask: Assign a category based on measured Ratio Ki for CNc1nc(NC(=O)Nc2ccccc2)n2nc(-c3ccco3)nc2n1 and give only the class name.
Result: middle

Ask: Which of the defined bands does the recorded Ratio Ki of O=C(Cc1ccccc1)Nc1nc(NCc2ccccc2)nc2nc(-c3ccco3)nn12 sit within?
Result: middle

Ask: Category of Fc1ccc(CNc2nc(NCc3ccc(F)cc3)n3nc(-c4ccco4)nc3n2)cc1 :
Result: middle

More entries:
Ask: Please report the category associated with CC(C)Nc1nc(NC(=O)Cc2ccccc2)n2nc(-c3ccco3)nc2n1 , nothing else.
Result: bottom

Ask: Using the reported Ratio Ki, which band applies to CNc1nc(N)n2nc(-c3ccco3)nc2n1 ?
Result: top

Source of measurements: ChEMBL document CHEMBL3751698
